Cited source for all entries: paper PMC5784245

Tested on: Klebsiella pneumoniae
Format: cell-based
recorded conditions: 24 h
Non-standard residues stand in square brackets, D forms with d. Residues, ends and D or L forms follow the SMILES beside them. dOrn = NCCC[C@@H](N)C(=O)O; Orn = NCCC[C@H](N)C(=O)O
observable: MIC Klebsiella pneumoniae (µg/mL)
Give the number; µg/mL is assumed, so skip it.

Enquiry: Suppose we examine the compound CC[C@@H](C)[C@@H](NC(=O)[C@@H](NC(=O)[C@H](CO)NC(=O)[C@H](Cc1ccccc1)NC(=O)[C@@H](CCCN)NC(=O)[C@H](CO)NC(=O)[C@H](CO)NC(=O)[C@@H](Cc1ccccc1)NC(=O)[C@@H](CO)NC(=O)[C@H](NC(=O)[C@@H](CCCN)NC(=O)[C@@H](Cc1ccccc1)NC(C)=O)[C@H](C)CC)C(C)C)C(=O)N[C@@H](CCCN)C(=O)O [4F, paenimucillin C] (Ac-[dF][dOrn][dI][dS][dF]SS[dOrn]FSV[dI][Orn]-OH) ; what MIC Klebsiella pneumoniae value has been reported?
Return: 4

Enquiry: Same lookup for CC[C@@H](C)[C@@H](NC(=O)[C@@H](NC(=O)[C@H](CO)NC(=O)[C@H](Cc1c[nH]c2ccccc12)NC(=O)[C@@H](CCCN)NC(=O)[C@H](CO)NC(=O)[C@H](CO)NC(=O)[C@@H](Cc1c[nH]c2ccccc12)NC(=O)[C@@H](CO)NC(=O)[C@H](NC(=O)[C@@H](CCCN)NC(=O)[C@@H](Cc1ccccc1)NC(C)=O)[C@H](C)CC)C(C)C)C(=O)N[C@@H](CCCN)C(=O)O [4W] (Ac-[dF][dOrn][dI][dS][dW]SS[dOrn]WSV[dI][Orn]-OH) , please.
Return: 2

Enquiry: Continue with CC[C@@H](C)[C@@H](NC(=O)[C@@H](NC(=O)[C@H](CO)NC(=O)[C@H](Cc1c[nH]c2ccccc12)NC(=O)[C@@H](CCCN)NC(=O)[C@H](CO)NC(=O)[C@H](CO)NC(=O)[C@@H](Cc1c[nH]c2ccccc12)NC(=O)[C@@H](CO)NC(=O)[C@H](NC(=O)[C@@H](CCCN)NC(=O)[C@H](N)Cc1ccccc1)[C@H](C)CC)C(C)C)C(=O)N[C@@H](CCCN)C(=O)O [5W] (H-[dF][dOrn][dI][dS][dW]SS[dOrn]WSV[dI][Orn]-OH)
Return: 4
